Experiment description: Growth of graft sarcoma AK in mice
Type: in vivo, noninbred white mice
Measurement context: mouse, in vivo, ip; mice with sarcoma AK, repeated intraperitoneal administration; read-out: Maximum tolerable dose (MTD)
Property: MTD (mg/kg)
Numeric answer only, unit mg/kg assumed.

Please look up its MTD: `O=C(CCBr)N1CC[N+]2(CC1)CC[N+]1(CCN(C(=O)CCBr)CC1)CC2`
250

---

Experiment description: Growth of graft sarcoma 45 in rats
Type: in vivo
Measurement context: rat, in vivo, ip, rats with sarcoma 45, repeated intraperitoneal administration; read-out: Maximum tolerable dose (MTD)
Protocol: The antitumor activity has been studied on white rats weighing 110-130 g, as well as on white noninbred and inbred mice weighing 17-21 g with ligated tumors. […] The compounds of the general formula (I), wherein X represents Cl^- (compound 1), Br^- (compound 2) are well-soluble in an isotonic solution of sodium chloride and they are administered intraperitoneally. The doses of the compounds have been calculated in mg per kg of the animal bodyweight.
Property: MTD (mg/kg)
Give a bare numeral; the unit mg/kg is implied.

What measured MTD goes with `O=C(CCBr)N1CC[N+]2(CC1)CC[N+]1(CCN(C(=O)CCBr)CC1)CC2` ?
125
